# experimentDescription: in vivo pharmacokinetics in mice
# conditions: mouse, plasma, po; 200 mg/kg p.o.
quantityMeasured: AUC(0-t) (ng·h/mL)

- O=C(O)c1cccc(Nc2cc(N3CCCCCC3)c3noc4c3c2C(=O)c2ccccc2-4)c1 [IPR-803]: 11300

* * *

# assaySystem: UniProt:Q03405
pKi: −log10 of the molar value.
quantityMeasured: pKi

* CC1CC(C)CN(c2cc(Nc3ccccc3C(=O)O)c3c4c(onc24)-c2ccccc2C3=O)C1 (stereo not shown) | 5.40

* * *

# assaySystem: uPAR (Homo sapiens, UniProt Q03405)
# Sequence (Q03405 23-299): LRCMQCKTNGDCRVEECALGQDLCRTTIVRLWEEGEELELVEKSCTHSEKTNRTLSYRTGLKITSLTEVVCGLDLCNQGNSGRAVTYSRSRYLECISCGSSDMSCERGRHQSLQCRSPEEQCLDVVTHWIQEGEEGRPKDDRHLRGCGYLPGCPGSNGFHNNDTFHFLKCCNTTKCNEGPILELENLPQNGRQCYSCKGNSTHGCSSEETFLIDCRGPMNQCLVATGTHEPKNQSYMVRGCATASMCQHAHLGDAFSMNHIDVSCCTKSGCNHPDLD
pKd: −log10 of the molar value.
quantityMeasured: pKd

- CC1CC(C)CN(c2cc(Nc3ccccc3C(=O)O)c3c4c(onc24)-c2ccccc2C3=O)C1 (stereo not shown) [IPR-456]: 6.51

* * *

# assaySystem: uPAATF binding to uPAR (Homo sapiens)
pIC50: −log10 of the molar value.
quantityMeasured: pIC50

• CC1CC(C)CN(c2cc(Nc3ccccc3C(=O)O)c3c4c(onc24)-c2ccccc2C3=O)C1 (stereo not shown) = ~5.00

* * *

# experimentDescription: in vivo pharmacokinetics in mice
# conditions: mouse, plasma; mice, 200 mg/kg oral gavage, saline; read-out: maximum concentration (Cmax) in plasma
quantityMeasured: Cmax (µM)

• O=C(O)c1cccc(Nc2cc(N3CCCCCC3)c3noc4c3c2C(=O)c2ccccc2-4)c1 = 5

* * *

# experimentDescription: in vivo pharmacokinetics in mice
# conditions: mouse, plasma, po; 200 mg/kg p.o.; read-out: Vdss/F
# Protocol: in vivo Pharmacokinetics of IPR-803 in mice. Compounds are administered to mice via a single dose of 200 mg/kg by oral gavage using a formulation of saline. […] Blood plasma samples are prepared by centrifugation for quantification and HPLC-MS/MS analysis. […] To gain insight into its absorption following oral dosing, intravenous bioavailability of compounds described herein is determined. […]
quantityMeasured: Vd/F (L)

- O=C(O)c1cccc(Nc2cc(N3CCCCCC3)c3noc4c3c2C(=O)c2ccccc2-4)c1 [IPR-803]: 2.23

* * *

# experimentDescription: in vivo pharmacokinetics in mice
# conditions: mouse, plasma, po; 200 mg/kg p.o.
quantityMeasured: Tmax (h)

- O=C(O)c1cccc(Nc2cc(N3CCCCCC3)c3noc4c3c2C(=O)c2ccccc2-4)c1 [IPR-803]: 1

* * *

# experimentDescription: in vivo pharmacokinetics in mice
# conditions: mouse, plasma, po; 200 mg/kg p.o.
quantityMeasured: half-life (min)

• O=C(O)c1cccc(Nc2cc(N3CCCCCC3)c3noc4c3c2C(=O)c2ccccc2-4)c1 = 282
